Test: Cytotoxicity against human CRL2365 cells by MTT assay
Type: functional, cell-based
Reported IC50 is given for each of the following molecules.

Task item: Give its IC50 value. Item: CCCCCCCC[C@](C)(O)CCc1oc(OC)c(C)c(=O)c1C
Reply: 2.4 µM

***
Task item: Give its IC50 value. Item: CCCCCCCCCC(O)Cc1oc(OC)c(C)c(=O)c1C (centres undefined)
Reply: 29.9 µM

Task item: Give its IC50 value. Item: CCCCCCCC[C@@](C)(O)CCc1oc(=O)c(C)c(O)c1C
Reply: > 31 µM

Task item: Give its IC50 value. Item: COc1oc(CC(O)CCCCCOc2ccc(-c3ccccc3)cc2)c(C)c(=O)c1C (centres undefined)
Reply: 12.4 µM

Task item: Give its IC50 value. Item: COc1oc(CC(O)CCCCCCc2ccccc2)c(C)c(=O)c1C (centres undefined)
Reply: > 27 µM

Task item: Give its IC50 value. Item: CCCCCCCC[C@](C)(O)CCc1oc(=O)c(C)c(O)c1C
Reply: > 31 µM

Task item: Give its IC50 value. Item: CCCCCCCC[C@@](C)(O)CCc1oc(OC)c(C)c(=O)c1C
Reply: 3.3 µM

Task item: Give its IC50 value. Item: CCCCCCCCC(C)(O)CCc1oc(=O)c(C)c(O)c1C (racemic)
Reply: > 31 µM

Task item: Give its IC50 value. Item: CCCCCCCCC(C)(O)CCc1oc(C)c(C)c(=O)c1C (racemic)
Reply: > 31 µM

----------
Tested on: A549
Assay: Cytotoxicity against human A549 cells by MTT assay
Assay type: functional, cell-based
experimentalEndpoint: pIC50
FYI, pIC50 means -log10 of a concentration in mol per litre.

Worked cases, pIC50 given:
Task item: Give its pIC50 value. Item: CCCCCCCCCC(O)Cc1oc(OC)c(C)c(=O)c1C (centres undefined)
Reply: 4.68

Task item: Give its pIC50 value. Item: CCCCCCCC[C@@](C)(O)CCc1oc(OC)c(C)c(=O)c1C
Reply: 5.28

Task item: Give its pIC50 value. Item: COc1oc(CC(O)CCCCCOc2ccc(-c3ccccc3)cc2)c(C)c(=O)c1C (centres undefined)
Reply: 4.77

Below: the item to evaluate.
Task item: Give its pIC50 value. Item: CCCCCCCC[C@](C)(O)CCc1oc(OC)c(C)c(=O)c1C
Reply: 5.39

----------
Reported IC50 is given for each of the following compounds.
Experiment: Inhibition of mitochondrial complex 1 in human MCF7 cells assessed as concentration required to obtain half maximal lactate production after 3 hrs by spectrophotometry
Assay type: cell-based
Details: MCF7, 3 h

Worked cases, IC50 given:
Task item: Give its IC50 value. Item: CCCCCCCCCC(O)Cc1oc(OC)c(C)c(=O)c1C (configuration not stated)
Reply: 900 nM

Task item: Give its IC50 value. Item: COc1oc(CC(O)CCCCCCc2ccccc2)c(C)c(=O)c1C (configuration not stated)
Reply: 880 nM

Task item: Give its IC50 value. Item: CCCCCCCC[C@@](C)(O)CCc1oc(OC)c(C)c(=O)c1C
Reply: 300 nM

Task item: Give its IC50 value. Item: CCCCCCCC[C@](C)(O)CCc1oc(OC)c(C)c(=O)c1C
Reply: 180 nM

Task item: Give its IC50 value. Item: CCCCCC[C@H]1C(=O)O[C@H](C)[C@H](NC(=O)c2cccc(NC=O)c2O)C(=O)O[C@@H](C)[C@@H]1OC(=O)CC(C)C [ANTIMYCIN A]
Reply: < 150 nM

Task item: Give its IC50 value. Item: CCCCCCCC[C@@](C)(O)CCc1oc(=O)c(C)c(O)c1C
Reply: 8600 nM

***
Task item: Give its IC50 value. Item: CCCCCCCCC(C)(O)CCc1oc(=O)c(C)c(O)c1C (racemic)
Reply: 4900 nM

Task item: Give its IC50 value. Item: CCCCCCCC[C@](C)(O)CCc1oc(=O)c(C)c(O)c1C
Reply: 16600 nM

Task item: Give its IC50 value. Item: CCCCCCCCC(C)(O)CCc1oc(OC)c(C)c(=O)c1C (racemic)
Reply: 380 nM

----------
Test: Inhibition of NADH oxidase from beef heart submitochondrial particles by spectrophotometry
Set-up: species or system Bos taurus
experimentalEndpoint: IC50 (µM)
Just the number please, in µM, no unit attached.

Task item: Give its IC50 value. Item: COc1oc(CC(O)CCCCCCc2ccccc2)c(C)c(=O)c1C (centres undefined)
Reply: 0.0725

Task item: Give its IC50 value. Item: CCCCCCCC[C@@](C)(O)CCc1oc(=O)c(C)c(O)c1C
Reply: 14.7

Task item: Give its IC50 value. Item: COc1oc(CC(O)CCCCCOc2ccc(-c3ccccc3)cc2)c(C)c(=O)c1C (centres undefined)
Reply: 0.0359

Below: the item to evaluate.
Task item: Give its IC50 value. Item: CCCCCCCCC(C)(O)CCc1oc(=O)c(C)c(O)c1C (racemic)
Reply: 13.6

----------
Experiment: Cytotoxicity against mouse 3LL cells by MTT assay
Format: functional, cell-based
pIC50: −log10 of the molar value.
Please enter Satisfied where pIC50 is greater than or equal to 5, and Not satisfied where it is lower.

Task item: I'd appreciate it if you could say whether CCCCCCCC[C@](C)(O)CCc1oc(OC)c(C)c(=O)c1C has pIC50 at least equal to 5.
Reply: Satisfied

***
Task item: I'd appreciate it if you could say whether COc1oc(CC(O)CCCCCCc2ccccc2)c(C)c(=O)c1C (centres undefined) has pIC50 at least equal to 5.
Reply: Not satisfied

Task item: I'd appreciate it if you could say whether CCCCCCCC[C@@](C)(O)CCc1oc(OC)c(C)c(=O)c1C has pIC50 at least equal to 5.
Reply: Satisfied

Task item: I'd appreciate it if you could say whether CCCCCCCCCC(O)Cc1oc(OC)c(C)c(=O)c1C (centres undefined) has pIC50 at least equal to 5.
Reply: Not satisfied

Task item: I'd appreciate it if you could say whether CCCCCCCC[C@@](C)(O)CCc1oc(=O)c(C)c(O)c1C has pIC50 at least equal to 5.
Reply: Not satisfied

Task item: I'd appreciate it if you could say whether CCCCCCCCC(C)(O)CCc1oc(C)c(C)c(=O)c1C (racemic) has pIC50 at least equal to 5.
Reply: Not satisfied

Task item: I'd appreciate it if you could say whether CCCCCCCC[C@](C)(O)CCc1oc(=O)c(C)c(O)c1C has pIC50 at least equal to 5.
Reply: Not satisfied

Task item: I'd appreciate it if you could say whether CCCCCCCCC(C)(O)CCc1oc(=O)c(C)c(O)c1C (racemic) has pIC50 at least equal to 5.
Reply: Not satisfied

----------
Experiment: Inhibition of NADH-ubiquinone oxidoreductase from beef heart submitochondrial particles by spectrophotometry
Set-up: species or system Bos taurus
Reported pIC50 is given for each of the following compounds.
FYI, pIC50 means -log10 of a concentration in mol per litre.

Task item: Give its pIC50 value. Item: CCCCCCCC[C@](C)(O)CCc1oc(OC)c(C)c(=O)c1C
Reply: 6.90

Task item: Give its pIC50 value. Item: CCCCCCCCC(C)(O)CCc1oc(=O)c(C)c(O)c1C (racemic)
Reply: 4.78

Task item: Give its pIC50 value. Item: CCCCCCCCCC(O)Cc1oc(OC)c(C)c(=O)c1C (stereo not given)
Reply: 6.64

Task item: Give its pIC50 value. Item: CCCCCCCC[C@](C)(O)CCc1oc(C)c(C)c(=O)c1C
Reply: 6.87

----------
Test: Inhibition of NADH oxidase from beef heart submitochondrial particles by spectrophotometry
Design: species or system Bos taurus
param class (str): category from IC50; see ranges bucket A: < 0.05 µM; bucket B: ≥ 0.05 µM and < 0.06 µM; bucket C: ≥ 0.06 µM

Task item: # bin lookup: classify CCCCCCCC[C@](C)(O)CCc1oc(C)c(C)c(=O)c1C by its IC50
Reply: bucket A

Task item: # bin lookup: classify CCCCCCCCC(C)(O)CCc1oc(C)c(C)c(=O)c1C (racemic) by its IC50
Reply: bucket B

Task item: # bin lookup: classify CCCCC(O)Cc1oc(OC)c(C)c(=O)c1C (stereo unspecified) by its IC50
Reply: bucket C

Task item: # bin lookup: classify CCCCCCCC[C@@](C)(O)CCc1oc(OC)c(C)c(=O)c1C by its IC50
Reply: bucket A

Task item: # bin lookup: classify CCCCCCCCC(C)(O)CCc1oc(OC)c(C)c(=O)c1C (racemic) by its IC50
Reply: bucket B

Task item: # bin lookup: classify CCCCCCCCC(C)(O)CCc1[nH]c(=O)c(C)c(O)c1C (racemic) by its IC50
Reply: bucket C

Task item: # bin lookup: classify CCCCCCCC[C@](C)(O)CCc1oc(OC)c(C)c(=O)c1C by its IC50
Reply: bucket A

Task item: # bin lookup: classify CCCCCCCCCC(O)Cc1oc(OC)c(C)c(=O)c1C (stereo unspecified) by its IC50
Reply: bucket C

***
Task item: # bin lookup: classify COc1oc(CC(O)CCCCCOc2ccccc2)c(C)c(=O)c1C (stereo unspecified) by its IC50
Reply: bucket C

Task item: # bin lookup: classify CCCCCCCC[C@](C)(O)CCc1oc(=O)c(C)c(O)c1C by its IC50
Reply: bucket C
